- System: KM12 colon
- procedure text: NCI tumour cell line growth inhibition, 48 h
Please use the following TGI ranges when assigning a class: A: < 8 µM; B: ≥ 8 µM and < 20 µM; C: ≥ 20 µM

Inquiry: Category of CCOc1ccc(N=Cc2c3ccccc3nc3ccccc23)cc1 , please.
Reply text: C

Inquiry: Dear colleague, I would appreciate it if you could identify the bin for CC1(C)O[C@H]2OC(CO)C(N=[N+]=[N-])[C@H]2O1 (some centres not stated) and reply at your convenience.
Reply text: C

Inquiry: Assign a category based on measured TGI for CCOC(=O)C1=C(N)Oc2c(sc3c(C)cccc23)C1c1ccc(F)cc1 (configuration not stated) and give only the class name.
Reply text: B

Inquiry: Class? Entry: Nc1ccc(C2=N/C(=C\c3cccc(N)c3)C(=O)O2)cc1
Reply text: C

Inquiry: Where would CCOC(=O)C(C)(c1c(C)[nH]c2ccccc12)c1c(C)[nH]c2ccccc12 land among the classes by reported TGI?
Reply text: C

Inquiry: Which category fits this record: CC(C)(C)c1cc(C(=O)/C=C/c2ccc(C(=O)O)cc2)cc(C(C)(C)C)c1
Reply text: A

Inquiry: Given NC(CCc1ncc(C(=O)O)s1)C(=O)O (configuration not stated) , name the class its TGI places it in.
Reply text: C

Inquiry: Using the reported TGI, which band applies to O=c1cc(NNc2cccc(Cl)c2)[nH]c(=O)[nH]1 ?
Reply text: C

Inquiry: # bin label for Oc1ccc(/C=C/c2cc(O)cc3c2C(c2cc(O)cc(O)c2)C(c2ccc(O)c(O)c2)O3)cc1 (configuration not stated)
Reply text: C

Inquiry: Which TGI band matches C=CCn1c(SCC(=O)Nc2ccc(C(=O)/C=C/c3cc(OC)c(OC)c(OC)c3)cc2)nnc1-c1ccc(OC)cc1 ?
Reply text: A

Inquiry: The entry to classify is NC1(CCNC(=O)c2ccccc2)CCN(C(=O)c2ccccc2)CC1 ; which class holds it?
Reply text: C

Inquiry: Entry CC1CCC(C(C)(C)c2ccccc2)C(=O)C1 (configuration not stated) belongs to which category?
Reply text: C

Inquiry: // return the class label for NC(=O)CNc1ccc([As]=[As]c2ccc(NCC(N)=O)cc2)cc1 (configuration not stated)
Reply text: C

Inquiry: Input CCC[CH2][Sn]1([CH2]CCC)[O]CC(COc2c(Cl)cc(Cl)cc2Cl)[O]1 (configuration not stated) ; output its category
Reply text: A

Inquiry: Form field 'band' for Cc1ccnc2c1C(=O)C1=C(OC(C)(C)CC1O)C2=O (configuration not stated)
Reply text: B

Inquiry: Band for the recorded TGI of CCCCC1C=Cn2c(=O)oc3c(OC(C)C)c(C)c(O)c1c32 (configuration not stated) ?
Reply text: B

Inquiry: Given O=C(Nc1ccc(Cl)cc1)Nc1nccs1 , name the class its TGI places it in.
Reply text: B

Inquiry: # bin label for CC(=O)SC(C[N+](=O)[O-])c1ccc2c(c1)OCO2 (configuration not stated)
Reply text: B

Inquiry: Record CC(NC(=O)Cc1ccccc1)NC(=O)C(C)C(=O)NCc1ccccc1 (configuration not stated) — which class?
Reply text: C

Inquiry: Consider CCCCCCc1cc2cc(C(=O)Nc3ccc(F)cc3)c(=N)oc2cc1O . To which TGI class does it belong?
Reply text: B

Inquiry: Assign a category based on measured TGI for C=CCC1(C)CCCCC1(O)CS(=O)c1ccccc1 (configuration not stated) and give only the class name.
Reply text: C

Inquiry: Class label required: COc1cc(/C=C2\CCC/C(=C\c3ccc(OCC4CO4)c(OC)c3)C2=O)ccc1OCC1CO1 (configuration not stated)
Reply text: A
